- system name: D(2) dopamine receptor (Rattus norvegicus)
- Sequence (P61169 whole entry): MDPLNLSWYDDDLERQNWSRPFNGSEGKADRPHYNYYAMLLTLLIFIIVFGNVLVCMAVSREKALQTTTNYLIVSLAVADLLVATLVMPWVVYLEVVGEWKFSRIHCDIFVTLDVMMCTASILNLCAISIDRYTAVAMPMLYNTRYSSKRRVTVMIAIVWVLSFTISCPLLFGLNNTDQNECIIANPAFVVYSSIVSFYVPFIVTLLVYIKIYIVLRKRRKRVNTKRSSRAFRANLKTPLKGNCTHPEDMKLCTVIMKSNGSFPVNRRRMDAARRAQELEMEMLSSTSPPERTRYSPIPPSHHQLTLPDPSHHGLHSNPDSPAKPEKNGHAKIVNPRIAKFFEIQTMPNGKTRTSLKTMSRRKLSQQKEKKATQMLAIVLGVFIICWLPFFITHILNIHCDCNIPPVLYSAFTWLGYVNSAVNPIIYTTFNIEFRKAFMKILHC
- assay: Binding affinity towards dopamine receptor D2 using [3H]-raclopride radioligand.
pKi: −log10 of the molar value.
Reported pKi is given for each of the following compounds.

O=C1C2CCCN2C(=O)N1CCN1CCN(c2ccccc2)CC1 (stereo unspecified) : < 6.00

Input: Quickly give me recorded pKi for O=C1C2CCCCN2C(=O)N1CN1CCN(c2ccccc2)CC1 (stereo unspecified)
Output: < 5.00

Input: Quickly give me recorded pKi for O=C1C2CCCCN2C(=O)N1CCN1CCN(c2ccc([N+](=O)[O-])cc2)CC1 (stereo unspecified)
Output: < 5.00

Input: Quickly give me recorded pKi for O=C1C2CCCN2C(=O)N1CCCCN1CCN(c2cccc(Cl)c2)CC1 (stereo unspecified)
Output: 6.82

Input: Quickly give me recorded pKi for O=C1C2CCCN2C(=O)N1CN1CCN(c2ccccc2)CC1 (stereo unspecified)
Output: < 5.00

Input: Quickly give me recorded pKi for O=C1C2CCCCN2C(=O)N1CN1CCN(c2ccc([N+](=O)[O-])cc2)CC1 (stereo unspecified)
Output: < 5.00

Measured values drawn from ChEMBL document CHEMBL1129734 for this set.
